Molecular target: stearoyl-CoA desaturase (SCD) (Rattus norvegicus, UniProt P07308)
Sequence (P07308 whole entry): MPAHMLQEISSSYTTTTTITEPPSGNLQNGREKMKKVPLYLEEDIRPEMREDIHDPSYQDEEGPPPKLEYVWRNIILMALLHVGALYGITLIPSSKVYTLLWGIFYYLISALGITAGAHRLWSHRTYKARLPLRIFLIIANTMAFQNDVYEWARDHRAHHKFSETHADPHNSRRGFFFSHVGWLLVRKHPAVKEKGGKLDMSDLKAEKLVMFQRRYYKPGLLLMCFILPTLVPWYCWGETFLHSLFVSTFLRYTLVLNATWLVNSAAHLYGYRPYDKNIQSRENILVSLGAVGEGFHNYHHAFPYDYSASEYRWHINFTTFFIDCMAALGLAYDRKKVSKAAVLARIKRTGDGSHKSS
Test: SCD assay, rat liver microsomes with [3H]stearoyl CoA (adapted from Talamo and Bloch)
Settings: second table, same SCD assay
Entries whose IC50 is below 80 nM take Condition met; entries at or above 80 nM take Condition not met.

compound	class_assignment
COc1ccc(-c2nc3ccc(NCc4ccc(Cl)c(C(F)(F)F)c4)cc3n(CCNC(C)=O)c2=O)cc1 [compound 62]	Condition met
COc1ccc(-c2nc3ccc(NCc4cccnc4)nc3n(CCNC(C)=O)c2=O)cc1 [compound 9]	Condition not met
Cc1nc2ccc(NCc3cccc(C(F)(F)F)c3)cc2n(CCNC(N)=O)c1=O [compound 53]	Condition met
COc1ccc(-c2nc3ccc(NCCc4cccc(Cl)c4)cc3n(CCNC(C)=O)c2=O)cc1 [compound 54]	Condition not met
COc1ccc(-c2nc3ccc(NCc4ccc(Cl)c(Cl)c4)nc3n([C@H]3CCNC3)c2=O)cc1 [compound 2]	Condition not met
CC(=O)NCCn1c(=O)cnc2ccc(NCc3cccc(C(F)(F)F)c3)nc21 [compound 7]	Condition not met
COc1ccc(-c2nc3ccc(NCc4ccc(Cl)c(Cl)c4)nc3n(CCNC(=O)CN)c2=O)cc1 [compound 40]	Condition not met
